# assayExplanation: Inhibition of AbI (unknown origin)
# Parameters: species or system Homo sapiens
measurementLabel: IC50 (nM)
Value expressed in nM; do not type the unit.

INPUT: Entry under review: CN(Cc1ccccc1)C(=O)c1ccc(S(=O)(=O)Nc2ccccc2)cc1 . Reported IC50?
OUTPUT: 6

###

# tgt: UniProt O75116
# Sequence (O75116 whole entry): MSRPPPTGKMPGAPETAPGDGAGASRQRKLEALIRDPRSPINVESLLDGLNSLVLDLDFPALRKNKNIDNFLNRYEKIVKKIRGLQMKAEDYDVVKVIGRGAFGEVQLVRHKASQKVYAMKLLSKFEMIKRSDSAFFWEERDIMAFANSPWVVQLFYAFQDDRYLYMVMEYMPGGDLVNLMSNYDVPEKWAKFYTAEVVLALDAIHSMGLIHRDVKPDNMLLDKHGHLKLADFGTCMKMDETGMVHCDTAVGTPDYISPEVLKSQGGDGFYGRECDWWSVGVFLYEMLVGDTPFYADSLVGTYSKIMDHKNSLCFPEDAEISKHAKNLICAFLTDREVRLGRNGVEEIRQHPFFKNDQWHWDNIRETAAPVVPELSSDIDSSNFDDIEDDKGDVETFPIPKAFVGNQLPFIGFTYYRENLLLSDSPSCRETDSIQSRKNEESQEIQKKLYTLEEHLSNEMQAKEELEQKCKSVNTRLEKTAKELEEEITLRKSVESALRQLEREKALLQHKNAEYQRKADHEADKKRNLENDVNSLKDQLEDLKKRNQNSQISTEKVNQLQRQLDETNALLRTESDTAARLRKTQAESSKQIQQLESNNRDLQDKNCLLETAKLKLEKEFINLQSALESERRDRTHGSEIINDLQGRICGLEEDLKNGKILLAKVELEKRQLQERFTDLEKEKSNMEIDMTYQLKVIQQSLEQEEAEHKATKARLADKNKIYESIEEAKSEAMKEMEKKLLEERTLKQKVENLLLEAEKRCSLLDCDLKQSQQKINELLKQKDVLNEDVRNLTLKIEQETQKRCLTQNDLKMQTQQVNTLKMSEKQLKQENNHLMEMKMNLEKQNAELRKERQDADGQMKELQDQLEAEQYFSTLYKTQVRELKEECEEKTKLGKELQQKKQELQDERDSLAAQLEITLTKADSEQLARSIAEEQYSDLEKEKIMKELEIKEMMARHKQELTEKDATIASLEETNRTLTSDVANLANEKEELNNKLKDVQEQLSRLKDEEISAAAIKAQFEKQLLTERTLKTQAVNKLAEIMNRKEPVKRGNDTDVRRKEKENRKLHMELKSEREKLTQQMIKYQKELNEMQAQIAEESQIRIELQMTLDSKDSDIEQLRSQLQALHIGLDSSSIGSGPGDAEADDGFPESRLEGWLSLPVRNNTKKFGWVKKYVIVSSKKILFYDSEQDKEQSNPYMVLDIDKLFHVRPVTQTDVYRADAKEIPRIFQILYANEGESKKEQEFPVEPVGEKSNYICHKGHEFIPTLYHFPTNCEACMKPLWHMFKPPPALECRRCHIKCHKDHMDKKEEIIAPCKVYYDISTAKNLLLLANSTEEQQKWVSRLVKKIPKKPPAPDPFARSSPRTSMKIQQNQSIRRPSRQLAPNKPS
# assayExplanation: Inhibition of human recombinant ROCK2 by ADP glo kinase assay
measurementLabel: IC50 (nM)
Answer in nM, number only, no unit symbol.

INPUT: Look up IC50: Cc1c[nH]c2ncnc(-c3ccc(NC(=O)Nc4cccc(C(=O)NC(C)C)c4)cc3F)c12
OUTPUT: 18

###

For each record, write down the corresponding IC50.
# tgt: LIM domain kinase 2 (Homo sapiens, UniProt P53671)
# Sequence (P53671 whole entry, the tested form may be a part): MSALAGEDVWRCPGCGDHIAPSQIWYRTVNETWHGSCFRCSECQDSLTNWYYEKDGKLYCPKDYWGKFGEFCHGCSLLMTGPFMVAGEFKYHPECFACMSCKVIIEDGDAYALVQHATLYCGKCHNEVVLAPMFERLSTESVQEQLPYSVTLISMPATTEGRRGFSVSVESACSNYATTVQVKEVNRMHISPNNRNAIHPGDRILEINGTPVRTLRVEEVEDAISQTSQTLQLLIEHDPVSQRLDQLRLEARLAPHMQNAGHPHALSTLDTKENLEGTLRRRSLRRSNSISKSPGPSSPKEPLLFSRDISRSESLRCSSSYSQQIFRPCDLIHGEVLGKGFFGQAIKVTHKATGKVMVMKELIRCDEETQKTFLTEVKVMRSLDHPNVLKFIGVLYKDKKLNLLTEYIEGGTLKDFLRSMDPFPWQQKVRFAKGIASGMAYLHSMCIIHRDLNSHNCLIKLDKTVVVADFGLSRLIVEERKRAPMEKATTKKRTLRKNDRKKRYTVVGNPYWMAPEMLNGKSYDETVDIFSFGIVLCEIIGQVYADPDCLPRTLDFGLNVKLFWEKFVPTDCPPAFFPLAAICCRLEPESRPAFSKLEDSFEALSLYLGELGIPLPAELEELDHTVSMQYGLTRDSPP
# assayExplanation: Inhibition of LIMK2 (unknown origin)

INPUT: Looking for the measured IC50 of CN(C)C1(C(=O)Nc2cccc(-c3ccccc3)c2)CCN(c2ncnc3[nH]c4c(c23)CCCC4)CC1 , can you help?
OUTPUT: 0.0001 µM

INPUT: I would be grateful if you could share the reported IC50 for COc1cc(-c2nn(C3CCC(N4CCN(C)CC4)CC3)c3ncnc(N)c23)ccc1NC(=O)OCc1ccccc1 (configuration not stated) .
OUTPUT: 0.8 µM

###

So I've got a bunch of compounds here, and I need their pIC50 values.
# tgt: LIM domain kinase 2 (Homo sapiens, UniProt P53671)
# assayExplanation: Inhibition of LIMK2 (unknown origin) in presence of ATP at 25 uM
# pIC50 is unitless: minus log10 of the molar concentration; print number only

INPUT: Value lookup for pIC50; key = Cc1c[nH]c2ncnc(N3CCC(C(=O)Nc4cccc(OC(=O)N(C)C)c4)C(C)C3)c12 (configuration not stated)
OUTPUT: 6.68

INPUT: What value of measured pIC50 is listed for Cc1c[nH]c2ncnc(N3CCC(C(=O)Nc4cccc(OC(=O)N(C)C)c4)[C@@H](C)C3)c12 (some centres not stated) ?
OUTPUT: 6.96

###

# tgt: LIM domain kinase 1 (Homo sapiens, UniProt P53667)
# Sequence (P53667 whole entry, the tested form may be a part): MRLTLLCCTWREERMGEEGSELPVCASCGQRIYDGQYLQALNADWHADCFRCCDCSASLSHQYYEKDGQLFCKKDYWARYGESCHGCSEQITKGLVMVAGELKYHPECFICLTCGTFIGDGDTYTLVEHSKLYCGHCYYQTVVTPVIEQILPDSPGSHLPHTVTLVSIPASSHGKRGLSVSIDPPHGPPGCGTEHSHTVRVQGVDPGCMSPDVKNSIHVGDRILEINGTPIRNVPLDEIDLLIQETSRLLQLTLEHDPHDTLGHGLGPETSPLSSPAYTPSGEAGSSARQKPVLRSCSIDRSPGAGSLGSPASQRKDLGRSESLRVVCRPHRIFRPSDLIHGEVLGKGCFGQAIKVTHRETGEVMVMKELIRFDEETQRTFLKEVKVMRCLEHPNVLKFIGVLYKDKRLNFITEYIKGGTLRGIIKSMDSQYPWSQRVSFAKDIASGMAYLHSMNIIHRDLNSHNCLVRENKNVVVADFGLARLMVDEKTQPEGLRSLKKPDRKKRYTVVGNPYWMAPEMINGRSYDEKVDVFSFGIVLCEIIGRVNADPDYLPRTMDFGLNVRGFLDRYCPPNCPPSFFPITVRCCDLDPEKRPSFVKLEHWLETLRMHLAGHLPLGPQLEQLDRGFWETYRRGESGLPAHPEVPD
# assayExplanation: Inhibition of human LIMK1 (321 to 647 residues) expressed in Sf9 cells using […] as substrate incubated for 30 mins by micro-scintillation fluid method
measurementLabel: IC50
// return the numeric value with its unit appended

INPUT: Any idea what IC50 was measured for O=C(Nc1ncc(-c2cc(C(F)F)nn2-c2c(Cl)cccc2Cl)s1)C1CC1 ?
OUTPUT: 5 nM

###

# tgt: LIM domain kinase 2 (Homo sapiens)
# assayExplanation: Inhibition of human recombinant LIMK2
measurementLabel: IC50

INPUT: Value lookup for IC50; key = Cc1c2cc[nH]c(=O)c2c(C)c2c1[nH]c1ccc(OC(=O)c3ccccc3)cc12
OUTPUT: 75 nM

###

# tgt: LIM domain kinase 1 (Homo sapiens)
# assayExplanation: Inhibition of LIMK1 (unknown origin) phosphorylation of cofilin
measurementLabel: IC50
Remember to quote the unit after the number.

INPUT: # lookup: IC50 of COCCN(C(=O)Nc1ccc(-c2ncnc3[nH]c(C)c(C)c23)c(F)c1)c1ccc(Cl)cc1
OUTPUT: 8 nM

Numbers sourced from ChEMBL document CHEMBL5244212.
